TARGET OR SYSTEM: T1, recombinant human PD-L1 extracellular domain (ECD) protein (cat #FCL0784B, G&P Biosciences) (human, UniProt Q9NZQ7 19-238)
T1 construct: extracellular domain; Bought protein; also called hPD-L1 protein; human PD-L1 protein
T1 sequence (Q9NZQ7 19-238): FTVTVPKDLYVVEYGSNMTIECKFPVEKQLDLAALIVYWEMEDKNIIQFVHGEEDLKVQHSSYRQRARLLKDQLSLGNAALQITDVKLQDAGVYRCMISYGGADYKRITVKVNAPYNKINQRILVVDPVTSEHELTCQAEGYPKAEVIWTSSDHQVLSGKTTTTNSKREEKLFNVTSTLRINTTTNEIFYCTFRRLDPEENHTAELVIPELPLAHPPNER
TEST PROTOCOL: PD1/PD-L1 blocking assay of Table 5 (format not stated)
Positions of bridges follow the written chain, without caps; N, C: chain ends. No end group written: not given here.
READOUT NAME: IC50 (nM)
Report the value in nM with no unit label.

BINDER	TEST VALUE
CHRSYYCWNLNT (disulfide 1-7, Cyclic variant of CLP002) [CLP2C21]	6

In: // fetch IC50 given entry CHRSYYTWNLNC (disulfide 1-12, Cyclic variant of CLP002) [CLP2C14]
Out: 5

Origin of measurements: patent US20220119451A1
